- subject-of-test: PD brain-derived a-syn aggregates (Homo sapiens, UniProt P37840)
- Construct: from tissue; host or cells: human PD donor brain, sarkosyl-insoluble 100,000 x g pellet
- assay-text: Micro-radiobinding competition assay against Example-1 [^3H-1] (Table 8)
- Assay type: binding
- stated-conditions: 1 μM non-radiolabelled example compound vs Example-1 [^3H-1] ligand; human PD brain-derived a-syn aggregates
quantity-measured: Competition at 1 μM (%)

Problem: GET /values?readout=Competition at 1 μM (%)&system=PD brain-derived a-syn aggregates (Homo sapiens, UniProt P37840)&item= `O=C1c2cn(-c3ccc(N4CC[C@H](F)C4)nc3)nc2CN1c1ccc(O)cn1`
Result: 107

a: Cc1ncccc1N1Cc2nn(-c3ccc(N4CC[C@@H](F)C4)nc3)cc2C1=O
b: N#Cc1ccc(-n2cc3c(n2)CN(c2cncc(F)n2)C3=O)cn1
c: O=C1c2cn(-c3ccc(N4CC[C@@H](F)C4)nc3)nc2CN1c1ccccc1F
Problem: Put the entries in order of Competition at 1 μM (%), starting with the largest number. # the answer lists labels in the order requested
Result: b, c, a

1: O=C1c2cn(-c3ccc(N4CC[C@@H](F)C4)nc3)nc2CN1c1cncnc1
2: Cn1cc(-n2cc3c(n2)CN(c2cncc(F)n2)C3=O)cn1
3: Cc1ncccc1N1Cc2nn(-c3ccc(N4CC[C@H](F)C4)nc3)cc2C1=O
Problem: Kindly order the items shown according to Competition at 1 μM (%), from the highest value down. Return the labels ranked in the requested order, please.
Result: 1, 2, 3

a: O=C1c2cn(-c3ccc(N4CC[C@H](F)C4)nc3)nc2CN1c1ccnc(O)c1
b: Cc1c2c(nn1-c1ccc(N3CC[C@@H](F)C3)nc1)CN(c1cccnc1)C2=O
c: Cc1c2c(nn1-c1ccc(N3CCCC3)nc1)CN(c1cncc(F)n1)C2=O
Problem: Sort entries by Competition at 1 μM (%) from minimum to maximum value. Please, when replying, give the labels in the order that was requested.
Result: b, c, a

I: O=C1c2cn(-c3ccc(N4CC[C@@H](F)C4)nc3)nc2CN1c1ccns1
II: O=C1c2cn(-c3ccc(N4CC[C@@H](F)C4)nc3)nc2CN1c1ccncc1O
Problem: Decide: I or II , by lowest recorded Competition at 1 μM (%). Respond with the label that goes with your answer.
Result: II

P: O=C1c2cn(-c3ccc(N4CC[C@@H](F)C4)nc3)nc2CN1c1ccnnc1
Q: Cc1cnccc1N1Cc2nn(-c3ccc(N4CC[C@@H](F)C4)nc3)cc2C1=O
Problem: Look at P and Q . Which one has the lower recorded Competition at 1 μM (%) number? Refer to your chosen entry by its label in the reply.
Result: Q

P: O=C1c2cn(-c3ccc(N4CCCC4)nc3)nc2CN1c1ncccc1F
Q: COc1ccccc1N1Cc2nn(-c3ccc(N4CC[C@@H](F)C4)nc3)cc2C1=O
Problem: Pick one: P or Q . Which one has the lower reported Competition at 1 μM (%)? Please identify the chosen entry by its label.
Result: Q

1: Cc1c2c(nn1-c1ccc(N3CC[C@@H](F)C3)nc1)CN(c1ccccn1)C2=O
2: O=C1c2cn(-c3ccc(C4CCCC4)nc3)nc2CN1c1cccc(F)n1
Problem: Return label of the item with the larger Competition at 1 μM (%). Candidates: 1 , 2 . # answer = label of selected item
Result: 2
(2: 99%, 1: 68%)

P: N#Cc1ccc(N2Cc3nn(-c4ccc(N5CC[C@@H](F)C5)nc4)cc3C2=O)cc1N
Q: O=C1c2cn(-c3ccc(N4CCOCC4)nc3)nc2CN1c1cncc(F)n1
Problem: Between P and Q , whose measured Competition at 1 μM (%) reads higher? Write down the label attached to your selection.
Result: P
